Cited source for all entries: the supplement of paper PMC5998384

Tested on: HeLa Kyoto;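 also: synchronized HeLa Kyoto cells, proteins quantified by TMT10plex mass spectrometry, three biological replicates, mitosis taken 0.5 h after nocodazole release, G1/S directly after double thymidine block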
Assay: thermal stability score vs G1/S (z-score of summed log2 fold changes over temperatures); higher = more thermally stable than in G1/S
Settings: cell cycle stage: mitosis
Would you mind telling me the reported thermal stability score of each entry?
// print number alone

Req: Form field: reported thermal stability score of MSRRYDSRTTIFSPEGRLYQVEYAMEAIGHAGTCLGILANDGVLLAAERRNIHKLLDEVFFSEKIYKLNEDMACSVAGITSDANVLTNELRLIAQRYLLQYQEPIPCEQLVTALCDIKQAYTQFGGKRPFGVSLLYIGWDKHYGFQLYQSDPSGNYGGWKATCIGNNSAAAVSMLKQDYKEGEMTLKSALALAIKVLNKTMDVSKLSAEKVEIATLTRENGKTVIRVLKQKEVEQLIKKHEEEEAKAEREKKEKEQKEKDK [PSMA4]
Resp: -0.541

Req: Try this sequence next: MATSRYEPVAEIGVGAYGTVYKARDPHSGHFVALKSVRVPNGGGGGGGLPISTVREVALLRRLEAFEHPNVVRLMDVCATSRTDREIKVTLVFEHVDQDLRTYLDKAPPPGLPAETIKDLMRQFLRGLDFLHANCIVHRDLKPENILVTSGGTVKLADFGLARIYSYQMALTPVVVTLWYRAPEVLLQSTYATPVDMWSVGCIFAEMFRRKPLFCGNSEADQLGKIFDLIGLPPEDDWPRDVSLPRGAFPPRGPRPVQSVVPEMEESGAQLLLEMLTFNPHKRISAFRALQHSYLHKDEGNPE [CDK4]
Resp: -0.366

Req: Try this sequence next: MAPGVARGPTPYWRLRLGGAALLLLLIPVAAAQEPPGAACSQNTNKTCEECLKNVSCLWCNTNKACLDYPVTSVLPPASLCKLSSARWGVCWVNFEALIITMSVVGGTLLLGIAICCCCCCRRKRSRKPDRSEEKAMREREERRIRQEERRAEMKTRHDEIRKKYGLFKEENPYARFENN [PTTG1IP]
Resp: -6.48
